# Test system: normal NK cells expanded with K562-aAPC
# method: percent inhibition of viability; higher = more inhibition
# setup-conditions: 72 h; IL-2 2.5 ng/mL; 10000 nM
metric-name: percent inhibition of viability

Sample records with percent inhibition of viability:
stdin: Lookup: percent inhibition of viability / normal NK cells expanded with K562-aAPC / O=NN(CCCl)C(=O)NCCCl [Carmustine] (max concentration tested 10000 nM)
stdout: 10.2%

stdin: Lookup: percent inhibition of viability / normal NK cells expanded with K562-aAPC / COc1cc(F)c(F)c(Nc2ccc(I)cc2F)c1NS(=O)(=O)C1(C[C@H](O)CO)CC1 [Refametinib] (max concentration tested 10000 nM)
stdout: 23.1%

stdin: Lookup: percent inhibition of viability / normal NK cells expanded with K562-aAPC / CN(C)c1cc2c(cc1Sc1nc3c(N)nccc3n1CCNCC(C)(C)C)OCO2 [CUDC-305] (max concentration tested 10000 nM)
stdout: 99.5%

stdin: Lookup: percent inhibition of viability / normal NK cells expanded with K562-aAPC / O=C(/C=C\n1cnc(-c2cc(C(F)(F)F)cc(C(F)(F)F)c2)n1)NNc1cnccn1 [Selinexor] (max concentration tested 10000 nM)
stdout: 101%

Alright, here's another compound for you.
stdin: Lookup: percent inhibition of viability / normal NK cells expanded with K562-aAPC / O=C(O)CC1CC(c2ccccc2)=NO1 (stereo not given) [VGX-1027] (max concentration tested 10000 nM)
stdout: 14.7%
